Tested on: OVCAR4
Experiment Summary: Euclidean distance of Cell Painting phenotypic profile (signed KS, 77 features) to DMSO centroid (dimensionless distance); 5 or 10 uM (library dependent); higher = stronger phenotypic change vs DMSO (phenoactivity)
Condition Summary: 48 h
Where a name gives a salt, the structure may show the parent alone.
Euclidean distance reference
I only need the number, thanks.

Please review the entries below; each comes with its answer.
Problem: Consider the molecule CC(C)NCC(O)c1ccc(NS(C)(=O)=O)cc1 (stereo not drawn) . State its measured Euclidean distance.
Solution: 1.02

Problem: Provide Euclidean distance value for the following molecule: `CNC(=O)c1cc(Oc2ccc3nc(N[C@@H]4CCCC[C@H]4O)sc3c2)ccn1`
Solution: 1.22

Problem: # return recorded Euclidean distance for input `CC(C)(C#N)c1cc(Cn2cncn2)cc(C(C)(C)C#N)c1`
Solution: 1.41

Problem: Determine from records and report Euclidean distance for CC(C)(C)CC(C)(C)c1ccc(OCCOCC[N+](C)(C)Cc2ccccc2)cc1 [Benzethonium Chloride]
Solution: 2.37

Problem: Quick one: give measured Euclidean distance for `CC(C)C[C@H](NC(=O)[C@H]1O[C@@H]1C(=O)O)C(=O)NCCCCN=C(N)N`
Solution: 1.09

Problem: Specify measured Euclidean distance for Cc1ccc(/C(=C\CN2CCCC2)c2ccccn2)cc1 [Triprolidine Hydrochloride] .
Solution: 1.02

***
Problem: Supply measured Euclidean distance of CCCCN(CCCC)CC(O)c1cc(Cl)cc2c1-c1ccc(Cl)cc1/C2=C/c1ccc(Cl)cc1 (stereo not drawn) in your reply.
Solution: 0.763

Problem: Quote Euclidean distance reported for C[C@H](N)[C@H](O)c1cccc(O)c1 [Metaraminol Bitartrate] please.
Solution: 0.946

---

Tested on: A549
Experiment Summary: Euclidean distance of Cell Painting phenotypic profile (signed KS, 77 features) to DMSO centroid (dimensionless distance); 5 or 10 uM (library dependent); higher = stronger phenotypic change vs DMSO (phenoactivity)
Condition Summary: 48 h
Structures can show the parent of a compound that is named as a salt.
Reported values of Euclidean distance for individual entries
Give only the figure.

Past entries and their recorded results:
Problem: Using the record for CC(=O)NS(=O)(=O)c1ccc(N)cc1 [Sulfacetamide Sodium] , state its measured Euclidean distance.
Solution: 0.648

Problem: # return recorded Euclidean distance for input CC(COc1ccccc1)N(CCCl)Cc1ccccc1 (stereo not drawn) [Phenoxybenzamine HCl]
Solution: 0.892

Now take the following molecule into account.
Problem: Give me measured Euclidean distance, please, for this molecule: `Cc1c(Nc2ncccc2C(=O)O)cccc1C(F)(F)F`
Solution: 0.853

---

System: FB
Experiment Summary: Euclidean distance of Cell Painting phenotypic profile (signed KS, 77 features) to DMSO centroid (dimensionless distance); 5 or 10 uM (library dependent); higher = stronger phenotypic change vs DMSO (phenoactivity)
Condition Summary: 48 h
Structures can show the parent of a compound that is named as a salt.
Consider the following partition of reported Euclidean distance into named classes: bin A (below 1), bin B (1 to below 2), bin C (2 or more)

Problem: State the class of the molecule shown: `Cc1cc(C)nc(NS(=O)(=O)c2ccc(NC(=S)NC(=O)COc3ccc(Br)cc3Cl)cc2)n1`
Solution: bin A

Problem: For the record `CC(C)(C)CC(C)(C)c1ccc(O)c(Cc2ccc(Cl)cc2Cl)c1` , report the class its Euclidean distance corresponds to.
Solution: bin B

Problem: Bin this entry: `Cc1cc(C2CCCCC2)n(O)c(=O)c1`
Solution: bin C

Problem: In plain terms, what class is NC(=O)OCC(COC(N)=O)c1ccccc1 [Felbamate] ?
Solution: bin B

Problem: Hello team, could you let me know which band the following molecule falls into: `O=C1NC(=O)/C(=C/c2ccc3nccc(-c4ccncc4)c3c2)S1`
Solution: bin B

Problem: Assign a bin to NCC(=O)CCC(=O)O [5-Aminolevulinic acid HCl]
Solution: bin B

Problem: Class? Entry: CCN(CC)CCCC(C)Nc1nc(C)cc(Nc2ccc3nc(C)cc(N)c3c2)n1 (centres undefined)
Solution: bin A

Problem: # bin label for CC1(C)S[C@@H]2[C@H](NC(=O)[C@H](NC(=O)N3CCN(S(C)(=O)=O)C3=O)c3ccccc3)C(=O)N2[C@H]1C(=O)O [Mezlocillin Sodium]
Solution: bin B

Problem: Which class holds CNCc1cc(-c2ccccc2F)n(S(=O)(=O)c2cccnc2)c1 [Vonoprazan Fumarate (TAK-438)] ?
Solution: bin B

Problem: Which bin, given its Euclidean distance, does `CN(C)Cc1ccc(S(=O)(=O)n2ccc(/C=C/C(=O)NO)c2)cc1` occupy?
Solution: bin C

Others:
Problem: Band for the recorded Euclidean distance of `c1cn2cc(-c3ccc4cn[nH]c4c3)nc(Nc3ccc(N4CCOCC4)cc3)c2n1` ?
Solution: bin A

Problem: GET /class?item= OC(CCN1CCCCC1)(c1ccccc1)C1CCCCC1 (centres undefined) [Trihexyphenidyl hydrochloride]
Solution: bin A

Problem: Bin? Clc1ccccc1CN1CCc2sccc2C1 [Ticlopidine HCl]
Solution: bin B

Problem: Class for CN1CC[C@H](c2c(O)cc(O)c3c(=O)cc(-c4ccccc4Cl)oc23)[C@H](O)C1 [Flavopiridol HCl] ?
Solution: bin C

Problem: # bin lookup: classify `O=C(c1ccc(OCCCc2c[nH]cn2)cc1)C1CC1` by its Euclidean distance
Solution: bin A

Problem: For CCN(CCCc1ccccc1)CCCc1ccccc1 [Alverine Citrate] , which Euclidean distance bin applies?
Solution: bin B

Problem: Please let me know in which category the item `Cc1ncc(-c2ccnc(Nc3ccc(S(C)(=O)=O)cc3)n2)n1C(C)C` belongs.
Solution: bin C

---

Test system: OVCAR4
Experiment Summary: Euclidean distance of Cell Painting phenotypic profile (signed KS, 77 features) to DMSO centroid (dimensionless distance); 5 or 10 uM (library dependent); higher = stronger phenotypic change vs DMSO (phenoactivity)
Condition Summary: 48 h
Where a name gives a salt, the structure may show the parent alone.
Please use t whenever Euclidean distance is not below 1, and f whenever it is.

# count of solved cases: 4
Problem: Quick check: does CCOC(=O)C(C)(C)Oc1ccc(Cl)cc1 [Clofibrate] have Euclidean distance greater than or equal to 1?
Solution: f

Problem: Hi team, for CN(C)CC(c1ccc(O)cc1)C1(O)CCCCC1 (stereo unspecified) , is the recorded Euclidean distance at or above 1?
Solution: t

Problem: Threshold query (Euclidean distance >= 1) on `C=C1C[C@@]2(O)O[C@@]3(C[C@H]2C(C)C)[C@@H](C)CC[C@@H]13`
Solution: t

Problem: Can CN[C@@H]1[C@@H](O)[C@@H](O[C@@H]2[C@@H](O)[C@H](O[C@H]3OC(CN)=CC[C@H]3N)[C@@H](N)C[C@H]2N)OC[C@]1(C)O [Sisomicin sulfate] be said to have Euclidean distance at or above 1?
Solution: t

We next turn to a different compound, shown below.
Problem: Hi, just wondering whether `Cc1cnc(C(=O)O)c[n+]1[O-]` shows Euclidean distance of 1 or higher.
Solution: f

---

Test system: HEPG2
Experiment Summary: Euclidean distance of Cell Painting phenotypic profile (signed KS, 77 features) to DMSO centroid (dimensionless distance); 5 or 10 uM (library dependent); higher = stronger phenotypic change vs DMSO (phenoactivity)
Condition Summary: 48 h
Structures can show the parent of a compound that is named as a salt.
Would you mind labelling by Euclidean distance? At or over 0.7 is 1 (yes), under is 0 (no).

Problem: Does the molecule `O=S1(=O)CCN(CN2CCS(=O)(=O)NC2)CN1` have recorded Euclidean distance that is 0.7 or more?
Solution: 0 (no)

Problem: Is it the case that `CC1(C)CCC(C)(C)c2cc(NC(=O)c3ccc(C(=O)O)cc3)ccc21` has Euclidean distance reaching or exceeding 0.7?
Solution: 1 (yes)

Problem: Does Euclidean distance meet or surpass 0.7 for `O=C(Nc1c(Cl)cncc1Cl)c1ccc(OC(F)F)c(OCC2CC2)c1` ?
Solution: 1 (yes)

Problem: For this molecule, is measured Euclidean distance 0.7 or higher? CN(Cc1ccc(C(C)(C)C)cc1)Cc1cccc2ccccc12 [Butenafine HCl]
Solution: 0 (no)

Problem: Hello, I need to know if CO[C@H]1C[C@@H]2CC[C@@H](C)[C@@](O)(O2)C(=O)C(=O)N2CCCC[C@H]2C(=O)O[C@H]([C@H](C)C[C@@H]2CC[C@@H](OCCO)[C@H](OC)C2)CC(=O)[C@H](C)/C=C(\C)[C@@H](O)[C@@H](OC)C(=O)[C@H](C)C[C@H](C)/C=C/C=C/C=C/1C [Everolimus (RAD001)] has measured Euclidean distance not below 0.7. Thanks!
Solution: 1 (yes)

Problem: Is reported Euclidean distance greater than or equal to 0.7 here: CN1C(CCl)Nc2cc(Cl)c(S(N)(=O)=O)cc2S1(=O)=O (stereo not given) [Methyclothiazide]
Solution: 0 (no)

Problem: Kindly determine if Euclidean distance recorded for `NC(=O)[C@@H]1CCCN1C(=O)[C@H](Cc1c[nH]cn1)NC(=O)[C@@H]1CCC(=O)N1` is above or exactly 0.7.
Solution: 0 (no)

Problem: Check if Euclidean distance >= 0.7 (inclusive). Item: `CCOC(=O)[N-]c1c[n+](N2CCOCC2)no1`
Solution: 1 (yes)

We now examine a further molecule.
Problem: Hello, I need to know if `COC(=O)N[C@H](C(=O)N1CC2(CC2)C[C@H]1c1nc(-c2ccc3c(c2)C(F)(F)c2cc(-c4ccc5[nH]c([C@@H]6[C@H]7CC[C@H](C7)N6C(=O)[C@@H](NC(=O)OC)C(C)C)nc5c4)ccc2-3)c[nH]1)C(C)C` has measured Euclidean distance not below 0.7. Thanks!
Solution: 1 (yes)

Cited source: the supplement of paper PMC10127200
